test system: Haemophilus influenzae; assay: Antimicrobial activity against Haemophilus influenzae isolate by broth microdilution method; assay type: functional
Observed Property: MIC50 (µg/mL)
Numbers only, in µg/mL.

These solved cases illustrate the format of a correct answer.
CO/N=C(\C(=O)N[C@@H]1C(=O)N2C(C(=O)O)=C(COC(N)=O)CS[C@H]12)c1ccco1 | 2
C[C@H]1COc2c(N3CCN(C)CC3)c(F)cc3c(=O)c(C(=O)O)cn1c23.C[C@H]1COc2c(N3CCN(C)CC3)c(F)cc3c(=O)c(C(=O)O)cn1c23.O | 0.016
O=C(N[C@H](CO)[C@H](O)c1ccc([N+](=O)[O-])cc1)C(Cl)Cl | 0.5

// moving on: another record for MIC50
Tell me reported MIC50 for CC[C@H]1OC(=O)[C@H](C)[C@@H](O[C@H]2C[C@@](C)(OC)[C@@H](O)[C@H](C)O2)[C@H](C)[C@@H](O[C@@H]2O[C@H](C)C[C@H](N(C)C)[C@H]2O)[C@](C)(OC)C[C@@H](C)C(=O)[C@H](C)[C@@H](O)[C@]1(C)O , tested with Haemophilus influenzae.
8
